assayed_target: T1, Recombinant human CD4 (R&D Systems, Cat. 10327-CD) (human, UniProt P01730 26-390, limits assumed)
T1 construct: Bought protein; also called huCD4
test_method_notes: BLI (Octet Red 384), non-clonal supernatant captured on AMC sensors, 100 nM human CD4
For each of the binders below, state its Response.
Answer with a number only.

Any idea what its Response is? The binder is 75110_01J17A (antibody, V domains shown, Tested as non-clonal AlivaMab Mouse hybridoma supernatant (human variable regions and human kappa, mouse Fc); also called ADS75110 non-clonal supernatant 01J17A) VH: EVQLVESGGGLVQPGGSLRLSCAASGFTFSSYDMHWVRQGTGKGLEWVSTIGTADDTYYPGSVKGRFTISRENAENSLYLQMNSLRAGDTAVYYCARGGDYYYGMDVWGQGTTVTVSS VL: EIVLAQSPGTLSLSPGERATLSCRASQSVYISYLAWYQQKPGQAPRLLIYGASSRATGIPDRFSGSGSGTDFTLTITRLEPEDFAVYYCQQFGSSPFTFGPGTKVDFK
0.06

Any idea what its Response is? The binder is 75110_04P06A (antibody, V domains shown, Tested as non-clonal AlivaMab Mouse hybridoma supernatant (human variable regions and human kappa, mouse Fc); also called ADS75110 non-clonal supernatant 04P06A) VH: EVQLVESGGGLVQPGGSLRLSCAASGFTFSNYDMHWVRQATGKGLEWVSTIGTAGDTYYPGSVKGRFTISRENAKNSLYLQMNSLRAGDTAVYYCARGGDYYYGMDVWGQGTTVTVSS VL: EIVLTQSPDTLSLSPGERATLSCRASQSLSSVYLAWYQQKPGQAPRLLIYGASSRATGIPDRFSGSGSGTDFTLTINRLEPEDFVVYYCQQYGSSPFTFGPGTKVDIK
0.06

Any idea what its Response is? The binder is 75110_08H06A (antibody, V domains shown, Tested as non-clonal AlivaMab Mouse hybridoma supernatant (human variable regions and human kappa, mouse Fc); also called ADS75110 non-clonal supernatant 08H06A) VH: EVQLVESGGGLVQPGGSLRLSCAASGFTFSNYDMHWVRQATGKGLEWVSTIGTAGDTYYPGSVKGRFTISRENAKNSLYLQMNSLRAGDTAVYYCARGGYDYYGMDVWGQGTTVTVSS VL: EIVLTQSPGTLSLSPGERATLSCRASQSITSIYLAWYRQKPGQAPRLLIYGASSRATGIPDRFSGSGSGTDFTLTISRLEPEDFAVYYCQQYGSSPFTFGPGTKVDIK
0.06

Values were extracted from patent US20220112288A1.
